- test summary: Metabolic stability in mouse plasma assessed as remaining compound measured at 5 mins by HPLC analysis
- Format: ADME, cell-free
- experimental setup: read-out: Stability

>  <smiles string>
CCC(C)(C)C(=O)N1CCOc2ccc([18F])cc2C1

>  <remaining at 5 min, %>
72

$$$$

###

- test summary: Metabolic stability in mouse brain assessed as remaining compound measured at 5 mins by HPLC analysis
- Type: ADME, tissue-based
- experimental setup: read-out: Stability

>  <smiles string>
CCC(C)(C)C(=O)N1CCOc2ccc([18F])cc2C1

>  <remaining at 5 min>
86%

$$$$

###

Each item that follows carries a reported logD.
- test summary: Lipophilicity, logD of compound at pH 7.4 by shake-flask method
- Format: physicochemical
- experimental setup: buffer

>  <smiles string>
COc1cnc(N2CCC(C(=O)N3CCOc4ccc(F)cc4C3)CC2)nc1

>  <logD>
1.8

$$$$
>  <smiles string>
CCC(C)(C)C(=O)N1CCOc2ccc(F)cc2C1

>  <logD>
3.1

$$$$
>  <smiles string>
O=C(C1CCN(c2ncc(F)cn2)CC1)N1CCOc2ccc(F)cc2C1

>  <logD>
2.2

$$$$
